I'd appreciate it if you could supply growth values for the items below.
# Tested on: K-562 leukemia
# Protocol: NCI-60 one-dose screen, 48 h (100 = growth as untreated, 0 = no growth, -100 = all killed)
# Condition details: 10 µM
This is part of a sample that, as a whole, favours compounds with a hit. Of some 83,000 tested, about 20% had one in any assay. The source made the active and inactive calls. Rule for the calls: active = growth percent below 10; inactive = the rest.

Entry "CCn1cc(C(=O)O)c(=O)c2cc(F)c(N3CCNCC3)cc21" — recorded growth = 96.6% (inactive)

Entry "COc1ccccc1-n1c(-c2sc(NC(C)=O)nc2C)n[nH]c1=S" — recorded growth = 101% (inactive)

Entry "COc1ccc(-c2nc(-c3nc4ccc(C)cc4[nH]3)cc3c2[nH]c2ccccc23)cc1" — recorded growth = 17% (inactive)

Entry "Cc1ccc(C2=NN(c3ccc(S(C)(=O)=O)cc3)C(=O)CC2)cc1" — recorded growth = 11.7% (inactive)

Entry "CN(C)CCCOc1ccc(NC2=C(Cl)C(=O)C(Nc3ccc(OCCCN(C)C)cc3)=C(Cl)C2=O)cc1" — recorded growth = -11.7% (active)

Entry "Cc1cc(Br)nnc1Br" — recorded growth = 99.5% (inactive)

Entry "O=C(CCCNC(=O)c1nc(-c2ccccc2)n(-c2ccccc2)n1)NO" — recorded growth = 106% (inactive)

Entry "O=C1c2ccccc2-c2c1c1cccnc1c(=O)n2C[C@H](O)CO" — recorded growth = 76.6% (inactive)

Entry C#CC(C)(O)[C@@H]1C[C@H](CC(=O)O)C1(C)C (stereo partly specified) — recorded growth = 118% (inactive)

Entry "COc1ccc(-c2csc(NC(=O)c3ccc(Cc4n[nH]c(=O)c5cccnc45)cc3)n2)cc1" — recorded growth = 82.9% (inactive)

Entry "Cc1c(Cl)cccc1NC(=O)CCCl" — recorded growth = 88.2% (inactive)

Entry "CC(C)(C)OC(=O)CN1CCc2c(sc3ncnc(N/N=C/c4cccc5ccccc45)c23)C1" — recorded growth = 6.22% (active)

Entry "COc1cc(-c2nn(-c3cccc(NC(=O)NCCNC(=O)c4cccc(C(F)(F)F)c4)c3)cc2-c2ccncc2)ccc1Cl" — recorded growth = 8.57% (active)

Entry "COc1cc(-c2nn(-c3cccc(NC(=O)NCCNC(=O)c4ccccc4)c3)cc2-c2ccncc2)ccc1Cl" — recorded growth = 5.31% (active)

Entry "COc1ccc2nc3cc(Cl)ccc3c(N)c2c1" — recorded growth = -60.6% (active)

Entry Cc1ccc(C(SCC(N)C(=O)O)(c2ccc(C)cc2)c2ccc(C)cc2)cc1 (stereo unspecified) — recorded growth = 0.419% (active)

Entry "N#Cc1ccc(C(=O)CSc2nccc(Nc3ccc(C(=O)O)cc3)n2)cc1" — recorded growth = 106% (inactive)

Entry "CCc1ccc(C2=NN(c3ccc(S(C)(=O)=O)cc3)C(=O)CC2)cc1" — recorded growth = 10.4% (inactive)

Entry "C[C@@H](C[C@H](CCO)c1ccccc1)c1ccc2ccccc2c1" — recorded growth = -35.2% (active)

Entry "O=C(Nc1cc([N+](=O)[O-])c2[nH]c(=O)c3ccccc3c2c1)C(F)(F)F" — recorded growth = 84.6% (inactive)

Entry "NNC(=O)Oc1c(Cl)cc(Cl)cc1[N+](=O)[O-]" — recorded growth = 102% (inactive)
